Hello, the source for this data is patent US20100267697A1, in case you need it.

target: human Cav2.2 (composed of the subunits α1, β3 and α2δ) (Homo sapiens, UniProt Q00975); assay: FLIPR assay (TSA201 cells stably transfected with human Cav2.2 and human Kir2.3, FLUO-4 Ca2+ signal, KCl depolarization); conditions: 70 mM KCl depolarization, average value
Sequence (Q00975 whole entry): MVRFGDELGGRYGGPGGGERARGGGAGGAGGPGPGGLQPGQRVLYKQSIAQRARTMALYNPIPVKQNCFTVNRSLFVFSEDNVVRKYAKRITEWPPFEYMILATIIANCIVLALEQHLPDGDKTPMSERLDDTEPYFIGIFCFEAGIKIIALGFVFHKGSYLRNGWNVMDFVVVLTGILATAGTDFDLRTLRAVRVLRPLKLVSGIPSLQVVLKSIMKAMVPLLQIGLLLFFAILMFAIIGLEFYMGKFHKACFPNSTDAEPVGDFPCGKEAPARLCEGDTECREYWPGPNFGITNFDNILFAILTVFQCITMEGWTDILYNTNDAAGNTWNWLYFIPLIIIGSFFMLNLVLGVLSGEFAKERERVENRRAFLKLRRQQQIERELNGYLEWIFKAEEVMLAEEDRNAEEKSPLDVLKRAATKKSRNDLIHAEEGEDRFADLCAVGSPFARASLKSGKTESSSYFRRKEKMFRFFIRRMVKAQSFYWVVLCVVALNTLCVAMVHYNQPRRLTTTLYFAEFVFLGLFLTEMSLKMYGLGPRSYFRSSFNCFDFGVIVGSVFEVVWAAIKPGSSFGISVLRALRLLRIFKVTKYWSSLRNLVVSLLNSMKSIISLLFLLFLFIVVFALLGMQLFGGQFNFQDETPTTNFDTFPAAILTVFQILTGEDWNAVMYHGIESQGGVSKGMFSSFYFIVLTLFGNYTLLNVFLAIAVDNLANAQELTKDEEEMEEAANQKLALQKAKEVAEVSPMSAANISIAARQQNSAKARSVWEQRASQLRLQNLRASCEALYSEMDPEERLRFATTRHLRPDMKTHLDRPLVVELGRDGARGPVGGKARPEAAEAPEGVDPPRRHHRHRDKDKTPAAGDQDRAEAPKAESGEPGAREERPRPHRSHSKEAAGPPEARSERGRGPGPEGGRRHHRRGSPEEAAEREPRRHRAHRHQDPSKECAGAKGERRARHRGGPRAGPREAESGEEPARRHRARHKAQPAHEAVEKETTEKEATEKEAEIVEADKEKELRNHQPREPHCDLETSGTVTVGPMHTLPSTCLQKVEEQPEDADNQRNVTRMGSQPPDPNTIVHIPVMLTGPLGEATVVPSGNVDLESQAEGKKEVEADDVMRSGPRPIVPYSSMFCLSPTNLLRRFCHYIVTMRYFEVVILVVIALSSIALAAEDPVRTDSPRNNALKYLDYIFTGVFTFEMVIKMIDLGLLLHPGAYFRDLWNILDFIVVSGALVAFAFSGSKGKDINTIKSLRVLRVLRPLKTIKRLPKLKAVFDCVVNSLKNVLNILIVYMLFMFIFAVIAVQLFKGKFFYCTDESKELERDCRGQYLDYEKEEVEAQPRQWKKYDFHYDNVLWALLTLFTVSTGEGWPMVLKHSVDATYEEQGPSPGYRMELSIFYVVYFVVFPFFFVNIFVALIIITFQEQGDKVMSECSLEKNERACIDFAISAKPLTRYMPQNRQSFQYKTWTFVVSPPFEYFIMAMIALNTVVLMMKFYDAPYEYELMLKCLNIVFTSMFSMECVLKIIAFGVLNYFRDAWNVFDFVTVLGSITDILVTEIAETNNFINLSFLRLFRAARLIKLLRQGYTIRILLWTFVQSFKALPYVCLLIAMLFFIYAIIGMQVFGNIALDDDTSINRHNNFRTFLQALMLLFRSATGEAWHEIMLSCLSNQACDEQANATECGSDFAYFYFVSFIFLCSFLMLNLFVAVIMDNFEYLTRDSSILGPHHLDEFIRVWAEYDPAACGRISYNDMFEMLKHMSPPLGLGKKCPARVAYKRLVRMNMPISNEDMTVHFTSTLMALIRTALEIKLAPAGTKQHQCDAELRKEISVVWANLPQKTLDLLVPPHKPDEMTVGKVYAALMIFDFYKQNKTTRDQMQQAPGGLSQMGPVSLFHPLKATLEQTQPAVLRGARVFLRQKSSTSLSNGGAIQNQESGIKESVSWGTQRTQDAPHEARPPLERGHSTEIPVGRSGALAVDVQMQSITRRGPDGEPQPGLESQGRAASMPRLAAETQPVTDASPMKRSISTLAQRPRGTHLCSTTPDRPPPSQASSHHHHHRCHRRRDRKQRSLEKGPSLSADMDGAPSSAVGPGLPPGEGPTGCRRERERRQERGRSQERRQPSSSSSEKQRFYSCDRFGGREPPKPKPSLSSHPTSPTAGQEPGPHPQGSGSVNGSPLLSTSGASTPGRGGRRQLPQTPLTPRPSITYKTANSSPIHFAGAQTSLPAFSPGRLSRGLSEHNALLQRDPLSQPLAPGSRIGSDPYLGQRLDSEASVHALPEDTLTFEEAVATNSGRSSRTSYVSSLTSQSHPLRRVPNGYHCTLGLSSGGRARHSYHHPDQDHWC
Sequence (P54284 whole entry partner): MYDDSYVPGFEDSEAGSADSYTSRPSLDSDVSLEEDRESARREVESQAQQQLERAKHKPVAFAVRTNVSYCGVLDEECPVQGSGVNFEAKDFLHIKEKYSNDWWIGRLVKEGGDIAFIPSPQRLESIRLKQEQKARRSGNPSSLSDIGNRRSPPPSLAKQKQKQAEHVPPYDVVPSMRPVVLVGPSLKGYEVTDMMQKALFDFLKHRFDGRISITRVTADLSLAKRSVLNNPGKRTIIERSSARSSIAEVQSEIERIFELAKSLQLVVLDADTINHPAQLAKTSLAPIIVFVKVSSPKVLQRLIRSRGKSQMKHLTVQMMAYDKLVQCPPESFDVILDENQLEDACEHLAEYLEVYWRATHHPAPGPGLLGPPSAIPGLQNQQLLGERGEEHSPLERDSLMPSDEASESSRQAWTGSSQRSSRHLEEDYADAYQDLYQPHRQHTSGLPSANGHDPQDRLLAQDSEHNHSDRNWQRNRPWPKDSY
Sequence (P54289 25-946 partner limits assumed): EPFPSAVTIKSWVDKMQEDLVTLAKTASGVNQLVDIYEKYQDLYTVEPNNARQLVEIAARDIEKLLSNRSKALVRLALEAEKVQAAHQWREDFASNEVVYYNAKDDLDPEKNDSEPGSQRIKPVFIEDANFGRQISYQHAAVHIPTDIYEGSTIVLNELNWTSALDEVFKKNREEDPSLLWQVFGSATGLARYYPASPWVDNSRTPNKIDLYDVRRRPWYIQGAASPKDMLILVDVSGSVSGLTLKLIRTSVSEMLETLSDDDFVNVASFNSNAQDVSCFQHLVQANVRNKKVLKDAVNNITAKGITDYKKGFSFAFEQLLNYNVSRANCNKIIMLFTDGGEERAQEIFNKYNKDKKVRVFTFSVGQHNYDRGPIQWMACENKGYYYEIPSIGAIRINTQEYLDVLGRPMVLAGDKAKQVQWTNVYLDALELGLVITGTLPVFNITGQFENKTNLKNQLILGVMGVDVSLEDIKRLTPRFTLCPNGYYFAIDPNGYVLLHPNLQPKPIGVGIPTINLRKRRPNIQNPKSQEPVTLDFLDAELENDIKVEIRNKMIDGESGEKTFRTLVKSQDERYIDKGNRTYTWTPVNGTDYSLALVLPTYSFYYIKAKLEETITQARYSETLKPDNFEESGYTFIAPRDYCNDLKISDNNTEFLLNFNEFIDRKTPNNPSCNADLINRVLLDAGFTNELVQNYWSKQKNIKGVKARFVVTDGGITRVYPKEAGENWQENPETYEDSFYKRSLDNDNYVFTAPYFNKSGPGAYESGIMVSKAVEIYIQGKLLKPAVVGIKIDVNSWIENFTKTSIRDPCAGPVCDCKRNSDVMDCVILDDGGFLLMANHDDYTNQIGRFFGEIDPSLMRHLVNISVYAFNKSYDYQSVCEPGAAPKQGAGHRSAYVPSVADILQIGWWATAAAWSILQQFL
Sequence (P54289 947-1103 partner limits assumed): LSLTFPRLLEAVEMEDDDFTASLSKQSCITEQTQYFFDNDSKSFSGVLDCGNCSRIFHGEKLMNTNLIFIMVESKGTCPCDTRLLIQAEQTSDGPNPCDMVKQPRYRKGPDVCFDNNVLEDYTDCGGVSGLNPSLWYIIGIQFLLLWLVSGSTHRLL
pIC50: −log10 of the molar value.
Classify as follows. Reported pIC50 greater than or equal to 5: Satisfied. Reported pIC50 below: Not satisfied.

Check out these entries, answers already filled in.
CC(C)(C)C(=O)N(Cc1csc(N2CCCCCC2)n1)c1ccc(F)cc1 [Compound 183]    Satisfied
CN(C)c1nc(CN(C(=O)C(C)(C)C)c2ccc(F)cc2)cs1 [Compound 164]    Satisfied

Test whether the compound CN(C)CCN1CCN(c2nc(CN(C(=O)C(C)(C)C)c3ccc(F)cc3)cs2)CC1 [Compound 178] records pIC50 of 5 or higher.
Not satisfied
